Tested on: S. cerevisiae Burl-1 ts mutant growth, BacTiter-Glo, 38.5C 24 h
protocol_text: restored growth of temperature-sensitive Burl-1 yeast – whole organism, S. cerevisiae, Burl-1 ts mutant, luminescence, counter-screen for SUMOylation pathway inhibitor project, dose response (AID 463199)
Calls of active or inactive are those of the source.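 Rule for the calls: active = AC50, the dose giving half-maximal effect, exceeds a fixed cutoff for a compound that rescues yeast growth under heat; inactive = the rest, inconclusive results apart.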
In this section, each of the compounds is paired with its reported AC50.
observation_type: AC50

[[record]]
compound = "COc1ccc(N2CCN(C(=O)CNC(=O)Cc3ccc(Cl)cc3)CC2)cc1"
observed_measurement = "> 42 µM (inactive)"

[[record]]
compound = "COc1cc(SC)ccc1C(=O)Nc1cc(C)c(OCC(=O)N2CCOCC2)c(C)c1"
observed_measurement = "> 42 µM (inactive)"

[[record]]
compound = "CN1C(=O)c2cccc3c(Cl)ccc(c23)C1=O"
observed_measurement = "> 42 µM (inactive)"

[[record]]
compound = "Cc1cc(F)ccc1S(=O)(=O)Nc1ccccc1C(=O)Nc1ccc2[nH]c(=O)[nH]c2c1"
observed_measurement = "> 42 µM (inactive)"

[[record]]
compound = "COc1cc2c(cc1NC(=O)c1cccnc1)oc1ccccc12"
observed_measurement = "> 42 µM (inactive)"

[[record]]
compound = "CC(=O)c1ccc2noc(-c3ccc(F)cc3)c2c1"
observed_measurement = "> 42 µM (inactive)"

[[record]]
compound = "O=C(c1cc(N2C(=O)C3C4CCC(C4)C3C2=O)ccc1Cl)N1CCN(c2ccccc2)CC1 (configuration not stated)"
observed_measurement = "> 42 µM (inactive)"

[[record]]
compound = "NC(=O)C1=C[C@@H](c2ccc(Br)cc2)C[C@@H](OCCCCO)O1"
observed_measurement = "> 42 µM (inactive)"

[[record]]
compound = "c1ccc(-c2nc(N3CCOCC3)c3ccccc3n2)nc1"
observed_measurement = "> 42 µM (inactive)"

[[record]]
compound = "CC(C)[C@H](NC(=O)C1(c2ccccc2)CCN(C(=O)OC(C)(C)C)CC1)C(=O)O"
observed_measurement = "> 42 µM (inactive)"

[[record]]
compound = "O=C(CCCC(=O)N(CC(=O)NC1CCCC1)c1cccc(F)c1)Nc1ccccn1"
observed_measurement = "> 42 µM (inactive)"

[[record]]
compound = "Cc1cc(C)n(C(=O)c2ccccc2[N+](=O)[O-])n1"
observed_measurement = "> 42 µM (inactive)"

[[record]]
compound = "C=CCNc1nnc(SC2CC(=O)N(c3ccc(OCCC)cc3)C2=O)s1 (configuration not stated)"
observed_measurement = "> 42 µM (inactive)"

[[record]]
compound = "CCOc1ccc(N(C(C)C(=O)NC(C)CC)S(C)(=O)=O)cc1 (configuration not stated)"
observed_measurement = "> 42 µM (inactive)"

[[record]]
compound = "COc1cc2c(=O)n(-c3ccc(C)cc3)c(=O)n(CC(=O)c3ccc4c(c3)OCO4)c2cc1OC"
observed_measurement = "> 42 µM (inactive)"

[[record]]
compound = "COc1cc(C(=O)Oc2cccnc2)cc(OC)c1OC"
observed_measurement = "> 42 µM (inactive)"

[[record]]
compound = "Cn1c(=NC(=O)COc2ccccc2)sc2cc(F)cc(F)c21"
observed_measurement = "> 42 µM (inactive)"

[[record]]
compound = "Cc1ccc(C)c(-n2nnnc2SCC(=O)Nc2c(C)n(C)n(-c3ccccc3)c2=O)c1"
observed_measurement = "> 42 µM (inactive)"

[[record]]
compound = "Cc1ccc(NC2CC(=O)N(c3ccc(N4CCCCC4)cc3)C2=O)cc1 (configuration not stated)"
observed_measurement = "> 21 µM (inactive)"

[[record]]
compound = "Cc1cc(=O)oc2ccc(OC(=O)CC(C)C)cc12"
observed_measurement = "> 42 µM (inactive)"

[[record]]
compound = "CCOC(=O)C1=C(C)Nc2ncnn2C1/C=C/c1ccccc1 (configuration not stated)"
observed_measurement = "> 42 µM (inactive)"

[[record]]
compound = "O=C(Nc1nc2ccccc2s1)c1cccc(S(=O)(=O)N2CCc3ccccc32)c1"
observed_measurement = "> 42 µM (inactive)"

